- run-description: Toxicity liver stage against HepG2, at 10uM
- Format: cell-based
- Set-up: test concentration 10 uM, cell line HepG2-A16-CD81EGFP
- measurement-setup: human, HepG2-A16-CD81EGFP cells; read-out: INHIBITION
Reported cytotoxicity at 10 µM values follow for various molecules
Kindly answer with a numeric value in %, unit omitted.

Known results for molecules:
molecule: CC1CN(C)c2ccccc2CN1C(=O)c1ccncc1F (stereo unspecified)
uom: %
cytotoxicity at 10 µM: -16.9
//
molecule: CCN1CCN(CCCNC(=O)c2cc3ccc(C)cc3nc2C)CC1
uom: %
cytotoxicity at 10 µM: 5.33
//
molecule: CC(C)CNC(=O)[C@H]1C[C@H]2CN(C(=O)Nc3ccc(F)cc3)C[C@@H]1O2
uom: %
cytotoxicity at 10 µM: 0.428
//
molecule: c1cncc(-c2nnn3c2COCC(CNC2CCOCC2)C3)c1 (stereo unspecified)
uom: %
cytotoxicity at 10 µM: -77
//
molecule: Cc1cccc(Cl)c1NC(=O)Cn1cc(C(=O)O)ccc1=O
uom: %
cytotoxicity at 10 µM: -1.35

Let us examine a further case.
Fill in the blank: the reported cytotoxicity at 10 µM of CC1=Nc2c(c(=O)[nH]n2C2CCOCC2)C(c2cccc(Br)c2)S1 (stereo unspecified) is ____.
5.91

----------
Reported cytotoxicity at 10 µM values follow for various compounds
- run-description: Toxicity liver stage against HepG2, at 10uM
- Assay type: cell-based
- Parameters: test concentration 10 uM, cell line HepG2-A16-CD81EGFP
- measurement-setup: human, HepG2-A16-CD81EGFP cells; read-out: INHIBITION
Kindly answer with a numeric value in %, unit omitted.

Fill in the blank: the reported cytotoxicity at 10 µM of CC(C)c1nc2n(n1)CC(NCc1nc(-c3cccnc3)no1)CC2 (centres undefined) is ____.
4.04

Please do the same for Cc1ccc(=O)n(CC2(O)CCN(Cc3ccoc3)CC2)n1 as well.
-24.2

Please do the same for CN(CCc1ccccc1)Cc1cnc(C2(C)CCCCO2)nc1 (centres undefined) as well.
1.99

Please do the same for CCC(=O)N1CCC2(CC1)CN(C(C)=O)c1ccc(C)cc12 as well.
8.82

----------
- run-description: Toxicity liver stage against HepG2, at 10uM
- Type: cell-based
- Design: test concentration 10 uM, cell line HepG2-A16-CD81EGFP
- measurement-setup: human, HepG2-A16-CD81EGFP cells; read-out: INHIBITION
Reported cytotoxicity at 10 µM values follow for various molecules
Kindly answer with a numeric value in %, unit omitted.

molecule: O=C(c1ccsc1)N1C[C@H](N2CCOCC2)[C@@H]2OCCC[C@@H]21
cytotoxicity at 10 µM [%]: 8.28

molecule: O=C(C1CC(F)(F)C1)N1C[C@@H]2CN(Cc3ccoc3)CCO[C@@H]2C1
cytotoxicity at 10 µM [%]: 7.81

molecule: O=C(NCCn1ccnc1)N1CCN(Cc2ccsc2)CC1
cytotoxicity at 10 µM [%]: -15.3

molecule: O=C1CC2(CCCNC2)C(=O)N1Cc1cccc(F)c1 (stereo unspecified)
cytotoxicity at 10 µM [%]: 3.56

molecule: CCc1noc(C)c1C(=O)N1CCCC1Cn1cc(C)cn1 (stereo unspecified)
cytotoxicity at 10 µM [%]: -6.46

Fill in the blank: the reported cytotoxicity at 10 µM of Cc1cccn2cc(CC(=O)N3CCCC(n4cncn4)C3)nc12 (stereo unspecified) is ____.
-7.31

----------
Reported cytotoxicity at 10 µM values follow for various compounds
- run-description: Toxicity liver stage against HepG2, at 10uM
- Format: cell-based
- Set-up: test concentration 10 uM, cell line HepG2-A16-CD81EGFP
- measurement-setup: human, HepG2-A16-CD81EGFP cells; read-out: INHIBITION
Kindly answer with a numeric value in %, unit omitted.

Known results for compounds:
compound: N#Cc1cc(C(F)(F)F)ccc1NCC1CCS(=O)(=O)CC1
cytotoxicity at 10 µM, %: 10.2

compound: CN(C)C(=O)C1CN(Cc2ccc(C#N)cc2)c2ccccc2O1 (centres undefined)
cytotoxicity at 10 µM, %: 6.47

compound: CCOC(=O)CN1CCC2(CC1)CC(=O)c1ccc(OC)cc1O2
cytotoxicity at 10 µM, %: 6.2

compound: c1ccc(CO[C@@H]2CO[C@@]3(CCN(Cc4ccccn4)C3)C2)nc1
cytotoxicity at 10 µM, %: -9.62

compound: CCOC(=O)C1(O)CCN(C(=O)Nc2ccc(CC)cc2)CC1
cytotoxicity at 10 µM, %: -130

Let us examine a further case.
Fill in the blank: the reported cytotoxicity at 10 µM of CN1CCN(S(=O)(=O)c2cccc(F)c2)Cc2cccnc21 is ____.
-110

----------
- run-description: Toxicity liver stage against HepG2, at 10uM
- Format: cell-based
- Design: test concentration 10 uM, cell line HepG2-A16-CD81EGFP
- measurement-setup: human, HepG2-A16-CD81EGFP cells; read-out: INHIBITION
recorded-metric: cytotoxicity at 10 µM (%)
Kindly answer with a numeric value in %, unit omitted.

Known results for molecules:
molecule: CNC(=O)c1ccc(NC(=O)NC(C)c2cc(C)oc2C)cc1 (stereo unspecified)
recorded-metric: cytotoxicity at 10 µM
reported-result: -12.8

molecule: CC(C)COCC(NC(=O)CSc1nnc[nH]1)c1ccco1 (stereo unspecified)
recorded-metric: cytotoxicity at 10 µM
reported-result: 11.4

molecule: CCSc1cccc(NCc2cccnc2)c1
recorded-metric: cytotoxicity at 10 µM
reported-result: 0.14

Fill in the blank: the reported cytotoxicity at 10 µM of CN(C)C(=O)CNC(=O)c1ccc(Cl)cc1F is ____.
-7.04

Please do the same for Cc1nc([C@@H]2C[C@@H]3CCN(C(=O)c4ccsc4)C[C@H]3O2)no1 as well.
-8.44

Please do the same for CCN1CCC2(CN(C(C)=O)CC23CCN(CC2CC2)CC3)C1=O (stereo unspecified) as well.
3.94

Please do the same for C=Cc1cccc(CN2C[C@@H](CN(C)CC)[C@@H](CO)C2)c1 as well.
-6.63

Please do the same for COc1ccc2c(c1)CCCN2C(=O)CNCC1CN(C)CCO1 (stereo unspecified) as well.
4.78

Please do the same for O=C(c1ccc(-n2cncn2)cc1)N1CCN(c2cnccn2)CC1 as well.
2.45

Please do the same for Cc1csc(CN2CC[C@H]3C[C@@H](c4nnc(C)[nH]4)O[C@@H]3C2)n1 as well.
1.56

Please do the same for Cn1ccnc1C(=O)N1CCC(Cn2cc(-c3ccsc3)nn2)CC1 as well.
-6.46

----------
- run-description: Toxicity liver stage against HepG2, at 10uM
- Format: cell-based
- Parameters: test concentration 10 uM, cell line HepG2-A16-CD81EGFP
- measurement-setup: human, HepG2-A16-CD81EGFP cells; read-out: INHIBITION
recorded-metric: cytotoxicity at 10 µM (%)
Kindly answer with a numeric value in %, unit omitted.

molecule: CCOc1ccc2oc(-c3cn(C)nc3C)c(O)c(=O)c2c1
reported-result: 7.72
--
molecule: Cc1cc(NC(=O)c2ccc(F)cc2Br)n(C)n1
reported-result: -3.12
--
molecule: CC(C)c1cc(CNC(=O)NCc2cccc(N3CC=CC3)c2)on1
reported-result: 9.99
--
molecule: CC(=O)c1cccc(S(=O)(=O)N2CSCC2C(=O)NCC(F)(F)F)c1 (stereo unspecified)
reported-result: 3.78
--
molecule: Cc1cc(CNC(=O)CCc2c(C)nc3cc(O)nn3c2C)no1
reported-result: -3.27

Let us examine a further case.
Fill in the blank: the reported cytotoxicity at 10 µM of CCn1cc(NC(=O)Nc2ccc3c(c2)OCCO3)cn1 is ____.
-1.04

----------
Reported cytotoxicity at 10 µM values follow for various compounds
- run-description: Toxicity liver stage against HepG2, at 10uM
- Type: cell-based
- Parameters: test concentration 10 uM, cell line HepG2-A16-CD81EGFP
- measurement-setup: human, HepG2-A16-CD81EGFP cells; read-out: INHIBITION
Kindly answer with a numeric value in %, unit omitted.

compound: COc1ccc(CC(=O)N2CC[C@@H]3NC(=O)CC[C@@H]32)cc1
cytotoxicity at 10 µM (%): -1.89

compound: CCOCCC(=O)N1CCCN(c2ccccc2C)CC1
cytotoxicity at 10 µM (%): -7.68

compound: Cc1c(C2CCCN(C(=O)C3CC3)C2)n2c(nc1=O)CCC2 (centres undefined)
cytotoxicity at 10 µM (%): -1.85

compound: CCN(CC)S(=O)(=O)c1ccc(C(=O)NC(C)(C#N)C2CC2)cc1 (centres undefined)
cytotoxicity at 10 µM (%): -5.77

Fill in the blank: the reported cytotoxicity at 10 µM of COc1ccc(CNCC2CCN(CCO)CC2)cc1F is ____.
-3.71

Please do the same for Cc1nc(C2CCCCN2C(=O)c2ccccc2)ncc1C(=O)N(C)C (centres undefined) as well.
1.9

Please do the same for CC1CN(Cc2cccc(CN)c2)CCO1 (centres undefined) as well.
-8.99

Data provenance: ChEMBL document CHEMBL4513216
